Answer each item with its documented protein stability index.
B1: IKZF1 (parent)
chain: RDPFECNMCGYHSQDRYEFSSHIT

Variants of: B1
assay: protein stability index of a GFP-peptide fusion (GPS, HEK-293T) (PSI 1-6); higher = more stable;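 also: lentivirally expressed fusions sorted by FACS into six bins by GFP to DsRed ratio, PSI derived from sequencing read proportions per bin multiplied by bin number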
condition: c terminus: a fixed tail appended
Answers are plain numbers.

Q14V | 1.85
T24L | 2.19
T24Q | 2.18
S21W | 2.31
H22L | 1.81

// for each variant in input: emit protein stability index
1. P3R
2. I23P
3. D2Q
4. R1K
5. E5C

## Result
[2.04, 2.35, 2.04, 2.15, 2.11]
